Reference source for all entries: the RNAGym collection of RNA variant scans (doi:10.1093/molbev/msab373)

B1: Azoarcus group I ribozyme (parent)
chain: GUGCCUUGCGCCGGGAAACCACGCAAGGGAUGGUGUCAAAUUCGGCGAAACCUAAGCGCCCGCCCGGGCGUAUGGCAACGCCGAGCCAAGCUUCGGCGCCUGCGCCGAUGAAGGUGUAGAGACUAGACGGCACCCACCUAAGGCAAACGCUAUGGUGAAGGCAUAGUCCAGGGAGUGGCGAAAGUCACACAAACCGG

Variants of: B1
Assay: reverse-splicing fitness (ratio to wild type); higher = more active; in vitro selection; Mg2+ level not given
I would appreciate it if you labelled entries TRUE when reverse-splicing fitness is 0.02 or higher, otherwise FALSE.

change="C82G A111U A120C A145G C150U C169U U176C" label_value=FALSE
change="A111U A120U A145C C169G U176C" label_value=FALSE
change="A120G A145G C150U" label_value=TRUE
change="C82G A111G A120U C150G C169G U176C" label_value=FALSE
change="C82U A111G A120C A145U C150G U176C" label_value=FALSE

Query string: Is reported reverse-splicing fitness greater than or equal to 0.02 here: A111G A120U A145U C150A C169A U176C
Result string: FALSE
